The measurements presented in this section are drawn from PubChem BioAssay (NCATS).

Assay system: Rap guanine nucleotide exchange factor 4 (Homo sapiens)
Run description: Confirmatory qHTS for antagonist of cAMP-regulated guanine nucleotide exchange factor 4 (EPAC2) (AID 1645885); also: nearly all actives have a fitted effect of over 25% in size; also: potency is read from the fitted curve at half-maximal effect
Measurement parameters: EPAC2 Rap1B-BODIPY-GDP exchange fluorescence, biochemical; series mostly up to 12.7 µM
Inconclusive results are not listed. Activity calls are given as the source filed them. Calls follow the shape of the dose curve; as a rule, active = well fitted inhibition curve with a large enough effect; inconclusive = small, poorly fitted or top-dose-only effect; inactive = no such curve, though single readings can be large or run the other way.
Endpoint: Potency

>>> reading("CC1=NN(c2ccccc2)C(=O)C1C(=O)c1cc([N+](=O)[O-])cc([N+](=O)[O-])c1 (stereo not drawn)")
"inactive"
>>> reading("COC(=O)c1ccc2nc(-c3ccco3)c(Cc3ccc(OC)cc3C)n2c1")
"inactive"
>>> reading("CC(C)CC1=NN2C(=N)/C(=C\\c3coc4ccccc4c3=O)C(=O)N=C2S1")
"inactive"
>>> reading("COC(=O)CC1(c2ccc(OC)cc2)C(=O)c2ccccc2C1=O")
"inactive"
>>> reading("NC(=O)c1c(NC(=O)c2ccccc2)sc2c1CCN(Cc1ccccc1)C2")
"84.9 µM (active)"
>>> reading("CCOC(=O)C1=CN(Cc2cccc(F)c2)S(=O)(=O)NC1c1ccc(Br)cc1F (stereo not drawn)")
"inactive"
>>> reading("O=C(NCc1ccccc1)C(c1ccccc1)n1c(=O)c(-c2ccco2)nc2ccccc21 (stereo not drawn)")
"inactive"
>>> reading("Cc1cc(=O)oc2ccc(OC(=O)CN3C(=O)c4cccc([N+](=O)[O-])c4C3=O)cc12")
"inactive"
>>> reading("O/N=C(/c1ccc(F)cc1)C1CC1c1c(F)cccc1Cl (stereo not drawn)")
"inactive"
>>> reading("COc1ccccc1C(=O)NNC(=O)CCCN1C(=O)/C(=C/c2cccs2)SC1=S")
"inactive"
>>> reading("COc1cc2cc(Oc3ccc4ccc(=O)oc4c3)c(=O)oc2cc1O")
"inactive"
>>> reading("Cc1cc2nc(-c3ccc(SCc4ccccn4)nc3)[nH]c2cc1C")
"inactive"
>>> reading("O=[N+]([O-])c1cc2oc3c(c2c(C=NCc2ccncc2)c1O)CCCC3")
"inactive"
>>> reading("Cc1noc(C)c1COc1ccccc1C(=O)NC(C)c1ccc(Cl)cc1 (stereo not drawn)")
"33.8 µM (active)"
>>> reading("O=C(NCCc1c[nH]c2ccccc12)C(=O)Nc1cc2c3c(c1)CC(=O)N3CCC2")
"inactive"
>>> reading("CCc1ccccc1OCC(=O)NCC1COc2ccccc2O1 (stereo not drawn)")
"inactive"
>>> reading("O=C(CCN1C(=O)S/C(=C\\c2ccc(Cl)cc2)C1=O)Nc1ccc(C(=O)O)cc1")
"inactive"
>>> reading("CC(/C=C1\\SC(=S)N(c2ccc(C(=O)O)cc2)C1=O)=C\\c1ccccc1")
"inactive"
>>> reading("CCOC(=O)Cc1nn(Cc2ccc(Cl)cc2)c(=O)c2ccccc12")
"inactive"
>>> reading("CC(NS(=O)(=O)OCC(Cl)(Cl)Cl)c1ccc(C(C)(C)C)cc1 (stereo not drawn)")
"inactive"
>>> reading("Cc1cccc(Cn2c(-c3cccs3)nc3ccccc32)c1")
"inactive"
>>> reading("CCC(CC)C(=O)N1c2ccccc2C(C)(c2ccccc2)CC1(C)C (stereo not drawn)")
"inactive"
>>> reading("N#Cc1c(-c2ccccc2)c(C#N)c2nc3ccccc3n2c1N")
"84.9 µM (active)"
>>> reading("CC(=O)Nc1ccc(Nc2nnc(-c3ccc(O)cc3)c3ccccc23)cc1")
"inactive"
>>> reading("CCOc1cc(CNc2ccc(O)cc2)cc(Cl)c1OCc1ccccc1")
"inactive"
>>> reading("Cc1cc(C)c2c(CN3CCCC3)cc(=O)oc2c1")
"inactive"
>>> reading("CCOc1cc2c(cc1/C=C/c1noc(C)c1[N+](=O)[O-])OC(C)C2 (stereo not drawn)")
"inactive"
>>> reading("Cc1ccc(S(=O)(=O)N2CCN(C(=O)c3ccc4c(c3)OCO4)CC2)cc1")
"inactive"
>>> reading("O=C(Nc1ccccc1OCc1ccccc1)c1ccccc1Br")
"1.51 µM (active)"
>>> reading("Cc1cc(=O)n(Cc2ccccc2)c2c1c(C)nn2C")
"inactive"
>>> reading("CC(C)Cn1c(SC(C)C(=O)NCC2CCCO2)nc2ccc(Cl)cc2c1=O (stereo not drawn)")
"5.36 µM (active)"
>>> reading("COC(=O)[C@]12CCCCC=C1N(Cc1ccco1)C(=O)[C@H](CC(=O)NCc1cccs1)C2")
"inactive"
>>> reading("CCOC(=O)C1CCN(c2c(C(=O)c3ccc(C)cc3)cnc3ccc(F)cc23)CC1")
"inactive"
>>> reading("O=C1/C(=C/c2ccc(O)c(O)c2)SC(=S)N1Nc1ccccc1")
"inactive"
>>> reading("O=C(/C=C/c1ccc(-c2ccccc2[N+](=O)[O-])o1)c1ccco1")
"inactive"
>>> reading("CC(C)C(CCNC(=O)CC(Cc1ccccc1)c1ccco1)c1ccco1 (stereo not drawn)")
"inactive"
>>> reading("CCCn1c(O)c(N=Nc2ccc3ccccc3n2)c2ccccc21")
"21.3 µM (active)"
>>> reading("Oc1ccc(N=Cc2sc3ccccc3c2Cl)cc1")
"inactive"
>>> reading("CC(=O)c1cccc(NC2c3ccccc3C(=O)N2Cc2ccc3c(c2)OCO3)c1 (stereo not drawn)")
"inactive"
>>> reading("CCOC(=O)C1CCCN(C(=O)C2(c3ccc(Cl)cc3)CCCC2)CC1 (stereo not drawn)")
"inactive"
>>> reading("CCN(CC)c1ccc(/C=C/C(=O)c2ccc(Br)cc2)cc1")
"inactive"
>>> reading("Cc1nc(Cl)c2c(n1)NC1=C(O2)C(=O)CCC1")
"inactive"
>>> reading("O=S(=O)(c1ccc2nc(-c3ccco3)c(-c3ccco3)nc2c1)N1CCOCC1")
"inactive"
